The reported measurements were obtained from patent US20080318938A1.

# Study Target: SST4 (Homo sapiens)
# Sequence (P31391 whole entry, species assumed): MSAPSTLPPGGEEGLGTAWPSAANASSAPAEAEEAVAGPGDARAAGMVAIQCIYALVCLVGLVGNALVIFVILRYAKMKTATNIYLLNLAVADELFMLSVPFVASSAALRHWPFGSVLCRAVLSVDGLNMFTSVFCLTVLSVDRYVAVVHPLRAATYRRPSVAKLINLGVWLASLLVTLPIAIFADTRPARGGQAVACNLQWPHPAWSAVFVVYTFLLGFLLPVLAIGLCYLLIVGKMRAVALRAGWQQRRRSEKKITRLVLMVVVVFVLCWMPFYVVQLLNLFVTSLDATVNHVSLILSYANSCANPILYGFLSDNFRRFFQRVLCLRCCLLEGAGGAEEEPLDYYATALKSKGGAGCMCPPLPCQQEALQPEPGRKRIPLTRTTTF
# Assay Text: Receptor functional assay
# Test Context: agonist
Quantity Kind: EC50 (µM)
// units = µM; emit number, no label

Could you share which EC50 value was measured for CN1CCC[C@H]1CCNC(=O)c1cn2c3c(c(N4CCC(c5cnccn5)C4)c(F)cc3c1=O)Oc1cc3ccccc3cc1-2 (stereo partly shown) ?
9.9

###

# Tested on: ST486
# Assay Text: Inhibition of cell proliferation (MTT)
# Type: cell-based
# Test Context: Homo sapiens; ST486, Lymphoma; 48 hours
Quantity Kind: pEC50
# log scale: pEC50 equals minus log10 of the concentration in mol/L

Could you share which pEC50 value was measured for CN1CCC[C@H]1CCNC(=O)c1cn2c3c(c(N4CCC(c5cnccn5)C4)c(F)cc3c1=O)Oc1cc3ccccc3cc1-2 (stereo partly shown) ?
5.89
